- Test system: SK-MEL-28 melanoma
- assay method text: NCI tumour cell line growth inhibition, 48 h
parameter measured: TGI

CC(=O)c1c2c(cc3c1CC1(Cc4cc5c(cc4C1)CCC5)C3)CCC2 : > 100 µM

Can you give me TGI for all of these, one by one?
1. CCOc1ccc(NCC(=O)N2CC(=O)Nc3ccccc32)cc1
2. O=S(=O)(CC1=NC2C=CC=CC2N=C1)NCc1ccccc1 (stereo not drawn)
3. CCCOc1ccc(/C=C/c2cc(OC)c(OC)c(OC)c2)cc1
4. [N-]=[N+]=Nc1ncc(-c2ccc(C(F)(F)F)cc2)c(NC2CCCCCC2)n1
5. O=C(CNC(=O)c1cccc2ccccc12)Nc1ccccc1Oc1cccc(O)c1
6. COc1ccc2c(OC)c3ccoc3nc2c1O

1: > 100 µM; 2: > 100 µM; 3: > 100 µM; 4: > 10 µM; 5: > 25 µM; 6: > 100 µM

For each of the items listed, what is its TGI?
1. N[C@@H]1C[C@H](N)c2c(Cl)sc(Cl)c21
2. Cc1ccccc1C(C#N)/C(=N/NC(=O)c1cc2ccccc2cc1O)C(=O)Nc1cccc(Cl)c1 (stereo not drawn)
3. O=c1c2cc(Br)ccc2oc2ccc(Br)cc12
4. O=C(O)CCC(=O)Nc1ccc2c(c1)S(=O)(=O)N(CC(=O)O)C2=O
5. CN(C)c1ccc(C2CC(=O)CC(c3ccc(N(C)C)cc3)C23C(=O)NC(=O)NC3=O)cc1 (stereo not drawn)
6. CC(=O)NNC=N/C(C#N)=C(\N)C#N
7. O=C(CC(=O)Nc1ccc(Cl)cc1)NNCC(=O)Nc1nc(-c2ccccc2)cs1

["> 100 µM", "> 100 µM", "> 100 µM", "> 100 µM", "> 25 µM", "> 100 µM", "> 100 µM"]

Items follow; give TGI for each.
1. CSc1nc(=S)[nH]c2n[nH]c(C)c12
2. CC1(C)OC2C(CO)OC(n3ccc(=O)[nH]c3=O)C2O1 (stereo not drawn)
3. Cc1cc2c(cn1)C(=O)OCC2
4. CC(=O)OC1[C@H]2c3cc4c(cc3CN3CCC(C[C@@H]1OC(C)=O)C23)OCO4 (stereo partly drawn)
5. O=C1N=C2c3c(sc4c3CCCC4)N=CN2C1N=Nc1ccc(Cl)cc1 (stereo not drawn)
6. COc1cc2c(cc1OCCCCCOc1cc(-c3ccc(F)cc3)nc(C)n1)N=C[C@@H]1CCCN1C2=O
7. Cc1ccc2c(c1)C(C1Cc3c(C)cccc3C1=O)OC2=O (stereo not drawn)

> 100 µM
> 100 µM
> 100 µM
> 75 µM
> 100 µM
> 79.8 µM
> 100 µM

Below are 2 molecules. Give each one its TGI.
1. OCCN(CO)CN(CN(CO)CCO)c1nc(N(CN(CO)CCO)CN(CO)CCO)nc(N(CN(CO)CCO)CN(CO)CCO)n1
2. O=C1C(NCCO)=C(N2CC2)C(=O)C(NCCO)=C1N1CC1

1.88 ng/mL
> 100 µM

* * *

- Test system: HCC-2998 colon
- assay method text: NCI tumour cell line growth inhibition, 48 h
parameter measured: GI50

Some compounds with recorded GI50:
CCCCCC(=O)N1c2ccccc2NC2=C(C(=O)CC(c3ccc(OC)c(OC)c3)C2)C1c1ccc(C(F)(F)F)cc1 (stereo not drawn) : > 100 µM
CC(=O)OCC(=O)[C@@]1(O)[C@H](C)C[C@H]2[C@@H]3C=C(C)C4=Cc5c(cnn5-c5ccc(F)cc5)C[C@]4(C)[C@H]3[C@@H](O)C[C@@]21C : 1.88 µM

Let's switch to this compound now.
Reported HCC-2998 colon GI50 for item O=C(O)C(/C=C/c1ccco1)=N\Nc1nc(-c2ccc(Cl)cc2)cs1 was 14.2 µM
